Assay: Novel Modifiers of Survival Motor Neuron (SMN) Protein: Gene Identification via Genome-wide siRNA Screen;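 also: luminescence tracks full-length SMN protein made from the SMN2 reporter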
Conditions: HEK293T SMN2-luciferase reporter, siRNA knockdown, 72 h; actives lie on both sides
Screen size: about 31,000 sequences; about 1,400 (4.5%) were called active.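 The calls were made as follows: active = median seed-adjusted z-score above 1 or below -1; inactive = the rest.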 The entries come from a sample that favours actives as a whole.
Allowed answers: active, inactive

Below, 5 sequences whose answers are already recorded.
AGAUGUGAAGCUCAAAUUATT against ETV7; inactive
CGUGCACUAUAUUGCAGUUTT against PRMT2; inactive
GCAGUGUACCCGUCAUUAUTT against SEMA4B; inactive
GGACCCAAAUUCAGAAGAATT against ANKRA2; active
GAUCUUGGAUGGAUUGCUATT against OCA2; inactive

Just curious, what result did GGAUAUCACAGAAGGAUAUTT against ANXA4 get here? inactive

Just curious, what result did GCUAGUCUUCUGGAAGUUATT against SRPRB get here? inactive

###

Experiment: Novel Modifiers of Survival Motor Neuron (SMN) Protein: Gene Identification via Genome-wide siRNA Screen;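 also: luminescence tracks full-length SMN protein made from the SMN2 reporter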
Conditions: HEK293T SMN2-luciferase reporter, siRNA knockdown, 72 h; actives lie on both sides
Description: Spinal muscular atrophy (SMA) is the most common neuromuscular autosomal recessive disorder and one of the leading genetic causes of infant death. […] Briefly, 1 pmol of each siRNA was spotted to a well of a 384-well plate (Corning, Corning, NY) and 20 microL of serum-free DMEM containing […] of Lipofectamine RNAiMax (Life Technologies, Carlsbad, CA) was then added to each well. […] Raw luminescence reads were normalized to Ambion(R) Silencer(R) Negative Control #2 siRNA, then log10 transformed. […]
Out of some 31,000 sequences screened, about 1,400 (4.5%) were called active.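 Rule for the calls: active = median seed-adjusted z-score above 1 or below -1; inactive = the rest.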 This excerpt belongs to a sample that is enriched for actives.
Allowed answers: active, inactive

Below, 2 sequences whose answers are already recorded.
UGCUCGUGCUCGUUCCAAATT against ING4; inactive
AAGACAUGAUGUUCCACAATT against ADCY6; inactive

Just curious, what result did GAGAUAUACGAGGAGAUUATT against TIGD1 get here? inactive

Just curious, what result did CGGGAUAAUUUUGACAAGATT against NXF2 get here? inactive

###

Experiment: Novel Modifiers of Survival Motor Neuron (SMN) Protein: Gene Identification via Genome-wide siRNA Screen;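 also: luminescence tracks full-length SMN protein made from the SMN2 reporter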
Details: HEK293T SMN2-luciferase reporter, siRNA knockdown, 72 h; actives lie on both sides
Protocol: Spinal muscular atrophy (SMA) is the most common neuromuscular autosomal recessive disorder and one of the leading genetic causes of infant death. […] Briefly, 1 pmol of each siRNA was spotted to a well of a 384-well plate (Corning, Corning, NY) and 20 microL of serum-free DMEM containing […] of Lipofectamine RNAiMax (Life Technologies, Carlsbad, CA) was then added to each well. […] Raw luminescence reads were normalized to Ambion(R) Silencer(R) Negative Control #2 siRNA, then log10 transformed. […]
In all, about 31,000 sequences went through this assay and about 1,400 (4.5%) were called active.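 How the source made its calls: active means median seed-adjusted z-score above 1 or below -1; inactive means the rest.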 This is one part of a sample in which actives are shown more often than they occur.
Allowed answers: 1 = active, 0 = inactive

Below, 5 sequences whose answers are already recorded.
CCUCAAUACUCCGCAAAUATT against NMNAT2; 1
GGAUUAGUGAUUAUAUGGATT against NPAS3; 0
CUGACAGUGUGGAUCGAUATT against COL12A1; 0
GGGAGAACGUGACCAUCUATT against ICAM5; 1
GGAAGGUUGCUAUAGUGGATT against SSX2IP; 0

Just curious, what result did GGAUCAUUCUCAACGGGAUTT against KCNV2 get here? 1

Just curious, what result did GAGAGAUCAUUGCAAAGCATT against HNRNPM get here? 0

Just curious, what result did CGUGGAUUCUUACGGAAGATT against CIT get here? 0

###

Experiment: Novel Modifiers of Survival Motor Neuron (SMN) Protein: Gene Identification via Genome-wide siRNA Screen;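 also: luminescence tracks full-length SMN protein made from the SMN2 reporter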
Settings: HEK293T SMN2-luciferase reporter, siRNA knockdown, 72 h; actives lie on both sides
Description: Spinal muscular atrophy (SMA) is the most common neuromuscular autosomal recessive disorder and one of the leading genetic causes of infant death. […] Briefly, 1 pmol of each siRNA was spotted to a well of a 384-well plate (Corning, Corning, NY) and 20 microL of serum-free DMEM containing […] of Lipofectamine RNAiMax (Life Technologies, Carlsbad, CA) was then added to each well. […] Raw luminescence reads were normalized to Ambion(R) Silencer(R) Negative Control #2 siRNA, then log10 transformed. […]
Hit rate of the full screen: of about 31,000 sequences, about 1,400 (4.5%) were called active.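 Rule for the calls: active = median seed-adjusted z-score above 1 or below -1; inactive = the rest.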 Shown is part of a subset that was picked to be rich in actives.
Allowed answers: 1 = active, 0 = inactive

Just curious, what result did CAGACUACCCUGAUAGUUUTT against FLVCR1 get here? 0

Just curious, what result did CAUAGUAGAUCAAAUCUUATT against ZNF284 get here? 0

Just curious, what result did GCCUGGAUGAAUUCGAUUATT against UBE4A get here? 0

Just curious, what result did CAAAUCCUAUAGUAUAACATT against RPS6KC1 get here? 0

Just curious, what result did GGGAUGUUCUUAGAAGUUUTT against BIK get here? 0

###

Test: Novel Modifiers of Survival Motor Neuron (SMN) Protein: Gene Identification via Genome-wide siRNA Screen;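 also: luminescence tracks full-length SMN protein made from the SMN2 reporter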
Conditions: HEK293T SMN2-luciferase reporter, siRNA knockdown, 72 h; actives lie on both sides
The whole screen tested about 31,000 sequences, of which about 1,400 (4.5%) were called active. The full list was thinned out, with actives kept by preference.
Test Readout: median seed-adjusted z-score
Reply briefly: the number, and no unit.

Solved cases below.
CCACAUCUCAAGUCCACUUTT against PPP1R1A; -0.529
AAGUCGGAAUAGAAUGGAATT against COX7B; -1.16
AGGUGAAACUUCGAAGACATT against TRPM3; -0.633
GAGCAUGUUUUUACCCUUUTT against MGC17403; 0.204

I would be grateful if you could share the reported median seed-adjusted z-score for CUUCAGUUCGAAUACAUUUTT against RFC5 . -0.644

I would be grateful if you could share the reported median seed-adjusted z-score for GCAUCGGCAUCUUCACGCUTT against FZD5 . -0.129

I would be grateful if you could share the reported median seed-adjusted z-score for AGUUUCAUUUCAAUAAGUATT against HOXD1 . 0.144

I would be grateful if you could share the reported median seed-adjusted z-score for AGCUCACCAGAGAAAUUUUTT against CHDH . 0.0241

I would be grateful if you could share the reported median seed-adjusted z-score for GGAAUUGGUUUCAGUCAAATT against RCOR1 . -1.13

I would be grateful if you could share the reported median seed-adjusted z-score for GGAACUAAACUUGAUCUUATT against RAC1 . -0.0348

I would be grateful if you could share the reported median seed-adjusted z-score for CGAGGAACUAAGACUCAAATT against GPR151 . -0.263

I would be grateful if you could share the reported median seed-adjusted z-score for GACCCUCGAUUACUAUUCATT against OMA1 . 0

I would be grateful if you could share the reported median seed-adjusted z-score for CCUGAUGUCUUAUCUCAGATT against ZNF398 . 0.119

###

Assay: Novel Modifiers of Survival Motor Neuron (SMN) Protein: Gene Identification via Genome-wide siRNA Screen;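 also: luminescence tracks full-length SMN protein made from the SMN2 reporter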
Settings: HEK293T SMN2-luciferase reporter, siRNA knockdown, 72 h; actives lie on both sides
Method: Spinal muscular atrophy (SMA) is the most common neuromuscular autosomal recessive disorder and one of the leading genetic causes of infant death. […] Briefly, 1 pmol of each siRNA was spotted to a well of a 384-well plate (Corning, Corning, NY) and 20 microL of serum-free DMEM containing […] of Lipofectamine RNAiMax (Life Technologies, Carlsbad, CA) was then added to each well. […] Raw luminescence reads were normalized to Ambion(R) Silencer(R) Negative Control #2 siRNA, then log10 transformed. […]
In all, about 31,000 sequences went through this assay and about 1,400 (4.5%) were called active. The sample as a whole holds a higher share of actives than the screen did.
# key: entry, value: median seed-adjusted z-score
Reply briefly: the number, and no unit.

CUACCGGAUUGAGAUGGAATT against MEGF6; 0

I would be grateful if you could share the reported median seed-adjusted z-score for CCAGUCGCGUAAGACAACATT against PYDC1 . -1.44

I would be grateful if you could share the reported median seed-adjusted z-score for GCACUGUCUUUGUAUCUGATT against SFXN2 . 0.365

I would be grateful if you could share the reported median seed-adjusted z-score for AGACCCAGCUAGAUUCUGATT against GPR152 . -0.9

I would be grateful if you could share the reported median seed-adjusted z-score for GCAAGAUAGCUCAACCCAATT against ADAMTS12 . -0.0721

I would be grateful if you could share the reported median seed-adjusted z-score for GGAAAUUGCUUACAGGAAATT against ARSJ . -0.0978
